# assayedSystem: NK3 (Homo sapiens)
# test: Signal transduction (ST), intracellular Ca++ (FLIPR), NK3
# Type: cell-based
# details: read-out: pIC50 NK3 (converted)
Label Criterion met when IC50 is strictly below 800 nM; at or above that, label Criterion not met.

Prompt line: Identify whether the compound O=C(c1ccccc1Cl)N1CCC(N2CCN(C3CCN(C(=O)c4cc(C(F)(F)F)cc(C(F)(F)F)c4)C(Cc4ccccc4)C3)CC2)C1 (single isomer, unassigned) [Compound 160] records IC50 below 800 nM.
Response line: Criterion met

Prompt line: Identify whether the compound CC(C)(C)CC(=O)N1CCC(N2CCN([C@H]3CCN(C(=O)c4cc(C(F)(F)F)cc(C(F)(F)F)c4)[C@H](Cc4ccccc4)C3)CC2)C1 (some centres unmarked) records IC50 below 800 nM.
Response line: Criterion met

Prompt line: Identify whether the compound COc1ccccc1C(=O)N1CCC(N2CCN([C@H]3CCN(C(=O)c4cc(C(F)(F)F)cc(C(F)(F)F)c4)[C@H](Cc4ccccc4)C3)CC2)C1 (some centres unmarked) records IC50 below 800 nM.
Response line: Criterion met

Prompt line: Identify whether the compound O=C(C1CCCO1)N1CCC(N2CCN([C@H]3CCN(C(=O)c4cc(C(F)(F)F)cc(C(F)(F)F)c4)[C@H](Cc4ccccc4)C3)CC2)C1 (some centres unmarked) records IC50 below 800 nM.
Response line: Criterion not met

Prompt line: Identify whether the compound O=C(C1CC1)N1CCC(N2CCN(C3CCN(C(=O)c4cc(C(F)(F)F)cc(C(F)(F)F)c4)C(Cc4cc(F)cc(F)c4)C3)CC2)C1 (centres unmarked) records IC50 below 800 nM.
Response line: Criterion not met

Prompt line: Identify whether the compound O=C(c1c(Cl)cccc1Cl)N1CCC(N2CCN([C@H]3CCN(C(=O)c4cc(C(F)(F)F)cc(C(F)(F)F)c4)[C@H](Cc4ccccc4)C3)CC2)C1 (some centres unmarked) records IC50 below 800 nM.
Response line: Criterion met

Prompt line: Identify whether the compound Cc1oc(-c2ccccc2)cc1C(=O)N1CCC(N2CCN([C@H]3CCN(C(=O)c4cc(C(F)(F)F)cc(C(F)(F)F)c4)[C@H](Cc4ccccc4)C3)CC2)C1 (some centres unmarked) records IC50 below 800 nM.
Response line: Criterion not met

Prompt line: Identify whether the compound Cc1cc(C(=O)N2CCC(N3CCN([C@H]4CCN(C(=O)c5cc(C(F)(F)F)cc(C(F)(F)F)c5)[C@H](Cc5ccccc5)C4)CC3)C2)n(C)n1 (some centres unmarked) records IC50 below 800 nM.
Response line: Criterion met

Prompt line: Identify whether the compound O=C(c1ccoc1)N1CC[C@H](N2CCN([C@@H]3CCN(C(=O)c4cc(C(F)(F)F)cc(C(F)(F)F)c4)[C@@H](Cc4ccc(Cl)c(Cl)c4)C3)CC2)C1 records IC50 below 800 nM.
Response line: Criterion not met

* * *

# assayedSystem: NK3 (Homo sapiens, UniProt P29371)
# Sequence (P29371 whole entry): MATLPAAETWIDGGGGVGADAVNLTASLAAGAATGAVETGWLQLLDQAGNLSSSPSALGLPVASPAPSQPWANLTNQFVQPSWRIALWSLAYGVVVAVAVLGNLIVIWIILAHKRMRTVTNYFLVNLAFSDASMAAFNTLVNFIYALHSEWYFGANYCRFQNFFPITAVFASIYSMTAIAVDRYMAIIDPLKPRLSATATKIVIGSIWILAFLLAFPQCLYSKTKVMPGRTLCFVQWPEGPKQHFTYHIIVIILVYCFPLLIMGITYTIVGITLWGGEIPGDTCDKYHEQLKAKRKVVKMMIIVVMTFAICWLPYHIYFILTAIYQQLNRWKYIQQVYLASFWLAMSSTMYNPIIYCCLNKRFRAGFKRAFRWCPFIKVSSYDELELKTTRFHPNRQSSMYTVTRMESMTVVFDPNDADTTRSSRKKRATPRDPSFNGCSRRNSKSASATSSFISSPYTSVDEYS
# test: Signal transduction (ST), intracellular Ca++ (FLIPR), NK3
# Assay type: cell-based
# details: read-out: pIC50 NK3 (converted)
Label criterion met when IC50 is strictly below 0.8 µM; at or above that, label criterion not met.

Prompt line: Identify whether the molecule O=C(c1cc(C(F)(F)F)cc(C(F)(F)F)c1)N1CC[C@H](N2CCN(C3CCN(S(=O)(=O)c4ccc(O)cc4)C3)CC2)C[C@H]1Cc1ccccc1 (some centres unmarked) records IC50 below 0.8 µM.
Response line: criterion not met

Prompt line: Identify whether the molecule O=C(c1cn[nH]c1)N1CCC(N2CCN([C@H]3CCN(C(=O)c4cc(C(F)(F)F)cc(C(F)(F)F)c4)[C@H](Cc4ccccc4)C3)CC2)C1 (some centres unmarked) records IC50 below 0.8 µM.
Response line: criterion not met

Prompt line: Identify whether the molecule O=C(C1CC1)N1CCC(N2CCN([C@@H]3CCN(C(=O)c4cc(C(F)(F)F)cc(C(F)(F)F)c4)[C@H](Cc4ccc(Cl)c(Cl)c4)C3)CC2)C1 (relative stereo) records IC50 below 0.8 µM.
Response line: criterion not met

Prompt line: Identify whether the molecule O=C1CC[C@H](C(=O)N2CCC(N3CCN([C@H]4CCN(C(=O)c5cc(C(F)(F)F)cc(C(F)(F)F)c5)[C@H](Cc5ccccc5)C4)CC3)C2)O1 (some centres unmarked) records IC50 below 0.8 µM.
Response line: criterion not met

Prompt line: Identify whether the molecule O=C(c1c(Cl)cccc1Cl)N1CCC(N2CCN(C3CCN(C(=O)c4cc(C(F)(F)F)cc(C(F)(F)F)c4)C(Cc4ccc(F)c(F)c4)C3)CC2)C1 (centres unmarked) [Compound 256] records IC50 below 0.8 µM.
Response line: criterion met

Prompt line: Identify whether the molecule CC(C)(C)OC(=O)N1CCC(C(=O)N2CCC(N3CCN([C@H]4CCN(C(=O)c5cc(C(F)(F)F)cc(C(F)(F)F)c5)[C@H](Cc5ccccc5)C4)CC3)C2)C1 (some centres unmarked) records IC50 below 0.8 µM.
Response line: criterion not met

Prompt line: Identify whether the molecule O=C(c1ccoc1)N1CCC(N2CCN([C@H]3CCN(C(=O)c4cc(C(F)(F)F)cc(C(F)(F)F)c4)[C@H](Cc4ccccc4)C3)CC2)C1 (some centres unmarked) records IC50 below 0.8 µM.
Response line: criterion met

Prompt line: Identify whether the molecule O=C(C1CCOC1)N1CCC(N2CCN(C3CCN(C(=O)c4cc(C(F)(F)F)cc(C(F)(F)F)c4)C(Cc4ccc(F)c(F)c4)C3)CC2)C1 (single isomer, unassigned) [Compound 242] records IC50 below 0.8 µM.
Response line: criterion not met

Prompt line: Identify whether the molecule O=C(c1cc(C(F)(F)F)cc(C(F)(F)F)c1)N1CC[C@H](N2CCN(C3CCN(S(=O)(=O)c4cccs4)C3)CC2)C[C@H]1Cc1ccccc1 (some centres unmarked) records IC50 below 0.8 µM.
Response line: criterion met

Prompt line: Identify whether the molecule O=C(c1ccccc1Cl)N1CCC(N2CCN(C3CCN(C(=O)c4cc(C(F)(F)F)cc(C(F)(F)F)c4)C(Cc4ccc(F)cc4)C3)CC2)C1 (centres unmarked) records IC50 below 0.8 µM.
Response line: criterion not met

* * *

Provide the recorded IC50 for the entries that follow.
# assayedSystem: NK1 (Homo sapiens)
# Sequence (P25103 whole entry): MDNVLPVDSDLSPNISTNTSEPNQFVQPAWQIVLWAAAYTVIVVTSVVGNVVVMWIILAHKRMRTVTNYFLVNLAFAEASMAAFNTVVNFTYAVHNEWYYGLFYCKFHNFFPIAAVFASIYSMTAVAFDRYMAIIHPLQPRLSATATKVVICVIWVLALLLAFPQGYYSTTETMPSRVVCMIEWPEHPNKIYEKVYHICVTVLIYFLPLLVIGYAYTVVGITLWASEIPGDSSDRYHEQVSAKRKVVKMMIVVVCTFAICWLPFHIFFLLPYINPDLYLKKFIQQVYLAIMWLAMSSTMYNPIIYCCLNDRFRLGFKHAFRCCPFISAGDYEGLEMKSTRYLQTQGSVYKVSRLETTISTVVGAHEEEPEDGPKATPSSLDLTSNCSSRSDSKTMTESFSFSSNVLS
# test: Signal transduction (ST), intracellular Ca++ (FLIPR), NK1 antagonistic activity
# Type: cell-based
# details: read-out: pIC50 NK1 (converted)
Entry rule: numbers only, all in nM.

Given item COCCC(=O)N1CC[C@@H](N2CCN([C@H]3CCN(C(=O)c4cc(C(F)(F)F)cc(C(F)(F)F)c4)[C@H](Cc4ccccc4)C3)CC2)C1 [Compound 414] , the value recorded as its IC50 is 39.8

Given item N#Cc1ccccc1C(=O)N1CCC(N2CCN(C3CCN(C(=O)c4cc(C(F)(F)F)cc(C(F)(F)F)c4)C(Cc4ccccc4)C3)CC2)C1 (centres unmarked) [Compound 195] , the value recorded as its IC50 is 12.6

Given item O=C(c1ccc(O)cc1)N1CCC(N2CCN([C@H]3CCN(C(=O)c4cc(C(F)(F)F)cc(C(F)(F)F)c4)[C@H](Cc4ccccc4)C3)CC2)C1 (some centres unmarked) [Compound 341] , the value recorded as its IC50 is 10

Given item CC(C)(C)OC(=O)N1CCC(N2CCN(C3CCN(C(=O)c4cc(C(F)(F)F)cc(C(F)(F)F)c4)C(Cc4ccc(Cl)c(Cl)c4)C3)CC2)C1 (single isomer, unassigned) [Compound 165] , the value recorded as its IC50 is 50.1

Given item O=C(c1cnccn1)N1CC[C@H](N2CCN([C@H]3CCN(C(=O)c4cc(C(F)(F)F)cc(C(F)(F)F)c4)[C@H](Cc4ccc(Cl)c(Cl)c4)C3)CC2)C1 [Compound 323] , the value recorded as its IC50 is 10

* * *

Provide the recorded IC50 for the entries that follow.
# assayedSystem: UniProt P29371
# test: Signal transduction (ST), intracellular Ca++ (FLIPR), NK3
# Format: cell-based
# details: read-out: pIC50 NK3 (converted)
Entry rule: numbers only, all in µM.

Fill in: UniProt P29371 IC50 for O=C(C1CCOC1)N1CCC(N2CCN(C3CCN(C(=O)c4cc(C(F)(F)F)cc(C(F)(F)F)c4)C(Cc4ccccc4)C3)CC2)C1 (single isomer, unassigned) [Compound 139] = 6.31

Fill in: UniProt P29371 IC50 for O=C(c1ccccc1Cl)N1CCC(N2CCN(C3CCN(C(=O)c4cc(C(F)(F)F)cc(C(F)(F)F)c4)C(Cc4ccccc4)C3)CC2)C1 (single isomer, unassigned) [Compound 87] = 1.26

Fill in: UniProt P29371 IC50 for O=C(c1ccccc1Cl)N1CCC(N2CCN(C3CCN(C(=O)c4cc(C(F)(F)F)cc(C(F)(F)F)c4)C(Cc4ccc(F)c(F)c4)C3)CC2)C1 (single isomer, unassigned) [Compound 211] = 0.2

Fill in: UniProt P29371 IC50 for Cc1nnsc1C(=O)N1CCC(N2CCN([C@H]3CCN(C(=O)c4cc(C(F)(F)F)cc(C(F)(F)F)c4)[C@H](Cc4ccccc4)C3)CC2)C1 (some centres unmarked) [Compound 51] = 3.98

Fill in: UniProt P29371 IC50 for CC(C)(C)OC(=O)NC(C)(C)C(=O)N1CCC(N2CCN(C3CCN(C(=O)c4cc(C(F)(F)F)cc(C(F)(F)F)c4)C(Cc4ccccc4)C3)CC2)C1 (centres unmarked) [Compound 205] = 0.251
